src = paper PMC11938010

EXPERIMENTAL PROTOCOL: in vitro
SETUP CONDITIONS: human, HepG2 CC50, 48 h, MTT
CC50 values, listed per item

Examples with answers:
>>> result("CC(C)(C)OC(=O)N1CCN(c2ccc(NC(=O)c3cc(-c4cc(Cl)ccc4O)[nH]n3)cc2)CC1")
"> 50 µM"
>>> result("CC(C)(C)OC(=O)N1CCN=C1NCc1cccc(NC(=O)c2cc(-c3cc(Cl)ccc3O)[nH]n2)c1")
"19 µM"
>>> result("CC(C)(C)OC(=O)NCc1ccc(NC(=O)c2cc(-c3cc(Cl)ccc3O)[nH]n2)cc1C(F)(F)F [Compound 10B]")
"> 50 µM"
>>> result("CC(C)(C)OC(=O)N1CCN(c2cccc(NC(=O)c3cc(-c4cc(Cl)ccc4O)[nH]n3)c2)CC1")
"> 50 µM"
>>> result("O=C(Nc1cc(N2CCNCC2)cc(C(F)(F)F)c1)c1cc(-c2cc(Cl)ccc2O)[nH]n1 [Compound 11A]")
"9 µM"

Entry N=C(N)NCc1ccc(NC(=O)c2cc(-c3cc(Cl)ccc3O)[nH]n2)cc1 , CC50 reported as > 50 µM

Entry CC(C)(C)OC(=O)N1CCN(Cc2cccc(NC(=O)c3cc(-c4cc(Cl)ccc4O)[nH]n3)c2)CC1 , CC50 reported as 25 µM

Entry O=C(Nc1cccc(CN2CCNCC2)c1)c1cc(-c2cc(Cl)ccc2O)[nH]n1 , CC50 reported as 12 µM

Entry O=C(Nc1cccc(C(F)(F)F)c1)c1cc(-c2cc(Cl)ccc2O)[nH]n1 , CC50 reported as > 50 µM

Entry O=C(Nc1ccc(CN2CCNCC2)cc1)c1cc(-c2cc(Cl)ccc2O)[nH]n1 , CC50 reported as 13 µM

Entry CC(C)(C)OC(=O)NCc1ccc(NC(=O)c2cc(-c3cc(Cl)ccc3O)[nH]n2)cc1 , CC50 reported as > 50 µM

Entry O=C(c1cc(-c2cc(Cl)ccc2O)[nH]n1)N1CCOCC1 , CC50 reported as > 50 µM

Entry O=C(Nc1cccc(CNC2=NCCN2)c1)c1cc(-c2cc(Cl)ccc2O)[nH]n1 , CC50 reported as > 50 µM

Entry NCc1ccc(NC(=O)c2cc(-c3cc(Cl)ccc3O)[nH]n2)cc1 , CC50 reported as 30 µM

Entry Cc1ccc(NC(=O)c2cc(-c3cc(Cl)ccc3O)[nH]n2)cc1 , CC50 reported as > 50 µM

Entry N=C(N)NCc1ccc(NC(=O)c2cc(-c3cc(Cl)ccc3O)[nH]n2)cc1C(F)(F)F [Compound 10G] , CC50 reported as > 50 µM

----------
System: Escherichia coli ∆tolC
EXPERIMENTAL PROTOCOL: microbe, parasite or virus in culture
Type: cell-based
SETUP CONDITIONS: Escherichia coli, read-out: EcΔtolC MIC95
MIC values, listed per item

Examples with answers:
>>> result("CC(C)(C)OC(=O)NCc1ccc(NC(=O)c2cc(-c3cc(Cl)ccc3O)[nH]n2)cc1")
"> 50 µM"
>>> result("N=C(N)N1CCN(C(=O)c2cc(-c3cc(Cl)ccc3O)[nH]n2)CC1 [Compound 14G]")
"> 50 µM"
>>> result("CC(C)(C)OC(=O)N1CCN=C1NCc1cc(NC(=O)c2cc(-c3cc(Cl)ccc3O)[nH]n2)cc(C(F)(F)F)c1")
"24 µM"

Entry O=C(c1cc(-c2cc(Cl)ccc2O)[nH]n1)N1CCOCC1 , MIC reported as > 50 µM

Entry O=C(Nc1cc(CNC2=NCCN2)cc(C(F)(F)F)c1)c1cc(-c2cc(Cl)ccc2O)[nH]n1 , MIC reported as 7 µM

Entry CC(C)(C)OC(=O)NCc1ccc(NC(=O)c2cc(-c3cc(Cl)ccc3O)[nH]n2)cc1C(F)(F)F [Compound 10B] , MIC reported as > 50 µM

Entry NCc1ccc(NC(=O)c2cc(-c3cc(Cl)ccc3O)[nH]n2)cc1C(F)(F)F [Compound 10A] , MIC reported as 22.9 µM

Entry NCc1cccc(NC(=O)c2cc(-c3cc(Cl)ccc3O)[nH]n2)c1 , MIC reported as 47 µM

Entry N=C(N)NCc1ccc(NC(=O)c2cc(-c3cc(Cl)ccc3O)[nH]n2)cc1C(F)(F)F [Compound 10G] , MIC reported as 3.5 µM

Entry NCc1cc(NC(=O)c2cc(-c3cc(Cl)ccc3O)[nH]n2)cc(C(F)(F)F)c1 , MIC reported as 8 µM

Entry N=C(N)N1CCN(c2ccc(NC(=O)c3cc(-c4cc(Cl)ccc4O)[nH]n3)cc2)CC1 , MIC reported as 9 µM

Entry O=C(Nc1cc(N2CCNCC2)cc(C(F)(F)F)c1)c1cc(-c2cc(Cl)ccc2O)[nH]n1 [Compound 11A] , MIC reported as 7 µM

Entry CC(C)(C)OC(=O)N1CCN(c2ccc(NC(=O)c3cc(-c4cc(Cl)ccc4O)[nH]n3)cc2)CC1 , MIC reported as > 50 µM

Entry NCc1ccc(NC(=O)c2cc(-c3cc(Cl)ccc3O)[nH]n2)cc1 , MIC reported as > 50 µM

Entry N=C(N)N1CCN(c2cc(NC(=O)c3cc(-c4cc(Cl)ccc4O)[nH]n3)cc(C(F)(F)F)c2)CC1 [Compound 11G] , MIC reported as 4 µM

Entry CC(C)(C)OC(=O)NCc1cccc(NC(=O)c2cc(-c3cc(Cl)ccc3O)[nH]n2)c1 , MIC reported as > 50 µM

Entry CC(C)(C)OC(=O)N1CCN(c2cccc(NC(=O)c3cc(-c4cc(Cl)ccc4O)[nH]n3)c2)CC1 , MIC reported as > 50 µM
